Hello, the source for this data is the supplement of paper PMC4466140, in case you need it.

Measurement Target: CaBzz1-D1
Protocol Summary: SPOT peptide array binding signal intensity (averaged, normalized) (arbitrary units (background-subtracted, floor 0; scale differs between SH3 domains)); higher = stronger binding of the SH3 domain to the peptide
Measurement Name: SPOT peptide array binding signal intensity

Examples with answers:
PPIPIVPSSPAPPLP :: ≤ 0
IFLRISINFPLNYPN :: 1170
STKKPRPPVKSKPKH :: 104
TKPTPPPKPSHLKPK :: 1030
QPQRTAPKPPISAPR :: 1260

Below: the item to evaluate.
Inquiry: Provide SPOT peptide array binding signal intensity value for the following binder: `VTHRLRISIPGITGR`
Reply text: 252
